Assay: Plasma lysine response after liquid lysine drench
Format: in vivo, bovines
Details: cattle (bovine), oral, 60 g, Cow 1, 60-gram dose, 540 minutes, read-out: Cow 1, plasma lysine
Text: The following study, performed using liquid lysine supplied in a 60-gram amino acid dose in a liquid drench to two bovines, gave the following response curves in the plasma level of the lysine, which is an index of its absorption by the animals, and illustrates that the esophageal muscle reflex is active: […]
observable: concentration at 540 min (ng/mL)
Reply numerically in ng/mL, unit not repeated.

Prompt: Could you tell me which concentration at 540 min is on file for NCCCC[C@H](N)C(=O)O [liquid lysine, lysine] ?
Response: 19300

* * *

Assay: Plasma lysine response after liquid lysine drench
Type: in vivo, bovines
Details: cattle (bovine), oral, 60 g, Cow 1, 60-gram dose, 360 minutes, read-out: Cow 1, plasma lysine
observable: concentration at 360 min (ng/mL)
Reply numerically in ng/mL, unit not repeated.

Prompt: Could you tell me which concentration at 360 min is on file for NCCCC[C@H](N)C(=O)O [liquid lysine, lysine] ?
Response: 17300

* * *

Experiment: Plasma lysine response after liquid lysine drench
Type: in vivo, bovines
Details: cattle (bovine), oral, 60 g, Cow 1, 60-gram amino acid dose, sampling time 0 minutes, read-out: Cow 1, plasma lysine
observable: concentration at 0 min (ng/mL)
Reply numerically in ng/mL, unit not repeated.

Prompt: Could you tell me which concentration at 0 min is on file for `NCCCC[C@H](N)C(=O)O` ?
Response: 10000
